Reference for the values: PubChem BioAssay AID1963864

- Test system: KRAS PDC multicell spheroid viability;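 further: drug exposure lasted seven days; 100% = DMSO vehicle wells and lower means fewer viable cells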
- test.summary: Anticancer human tumor 521955-158-R6-J3-PDC patient-derived pancreatic carcinoma cell line growth inhibition [KRAS2]
- experimental.setup: second compound 0.316 µM; first compound 0.001 µM; stronger effect = lower value
- From the text: Multicellular complex tumor spheroid response to RAS pathway inhibitors in combination with a targeted agents in patient-derived cell lines with oncogenic KRAS variants from multiple cancer types A high-throughput screen of multi-cell type tumor spheroids was designed to identify active combinations of targeted small molecules and KRAS pathway inhibitors. […] Compounds. […] If the clinical Cmax for an agent had not been determined, the highest concentration tested was 10 microM. […]
The molecules listed here are annotated with their viability, T/C.

* CN(C)C/C=C/C(=O)Nc1cc2c(Nc3ccc(F)c(Cl)c3)ncnc2cc1O[C@H]1CCOC1 + CC1OCC2(CCN(c3cnc(Sc4ccnc(N)c4Cl)c(N)n3)CC2)C1N | 84.7%
* CN(C)C/C=C/C(=O)Nc1cc2c(Nc3ccc(F)c(Cl)c3)ncnc2cc1O[C@H]1CCOC1 + C=CC(=O)N1CCN(c2nc(=O)n(-c3c(C)ccnc3C(C)C)c3nc(-c4c(O)cccc4F)c(F)cc23)C(C)C1 | 112%
* CC(=O)Nc1cccc(-n2c(=O)n(C3CC3)c(=O)c3c(Nc4ccc(I)cc4F)n(C)c(=O)c(C)c32)c1 + C=CC(=O)N1CCN(c2nc(=O)n(-c3c(C)ccnc3C(C)C)c3nc(-c4c(O)cccc4F)c(F)cc23)C(C)C1 | 95.4%
* CC(C)n1nc(-c2ccc3oc(N)nc3c2)c2c(N)ncnc21 + CC1OCC2(CCN(c3cnc(Sc4ccnc(N)c4Cl)c(N)n3)CC2)C1N | 84.2%
* CC(C)n1nc(-c2ccc3oc(N)nc3c2)c2c(N)ncnc21 + C=CC(=O)N1CCN(c2nc(OCC3CCCN3C)nc3c2CCN(c2cccc4cccc(C)c24)C3)CC1CC#N | 90.7%

Note to self: viability, T/C recorded for CC(=O)Nc1cccc(-n2c(=O)n(C3CC3)c(=O)c3c(Nc4ccc(I)cc4F)n(C)c(=O)c(C)c32)c1 + C=CC(=O)N1CCN(c2nc(OCC3CCCN3C)nc3c2CCN(c2cccc4cccc(C)c24)C3)CC1CC#N was 101%

Note to self: viability, T/C recorded for Cn1ncnc1[C@H]1c2n[nH]c(=O)c3cc(F)cc(c23)N[C@@H]1c1ccc(F)cc1 + CC1OCC2(CCN(c3cnc(Sc4ccnc(N)c4Cl)c(N)n3)CC2)C1N was 76.7%

Note to self: viability, T/C recorded for CC(=O)Nc1cccc(-n2c(=O)n(C3CC3)c(=O)c3c(Nc4ccc(I)cc4F)n(C)c(=O)c(C)c32)c1 + CNCc1ccccc1-c1csc(C(C)Nc2nc(C)nc3cc(OC)c(OC)cc23)c1 was 80.8%
